Just for reference, paper PMC12185845 is where these values come from.

# Experimental Target: rOBP1 (rOBP1-wt) (Rattus norvegicus, UniProt P08937)
# Construct: S7
# Sequence (P08937 16-172): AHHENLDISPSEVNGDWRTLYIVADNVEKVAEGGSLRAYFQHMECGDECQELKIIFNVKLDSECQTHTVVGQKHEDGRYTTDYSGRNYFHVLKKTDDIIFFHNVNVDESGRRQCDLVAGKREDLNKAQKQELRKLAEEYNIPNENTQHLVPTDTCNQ
# Protocol: isothermal titration calorimetry, single-site fit
# Setup Conditions: 50 mM sodium phosphate, pH 7.5, 25 °C
Reported Endpoint: Kd (µM)

I: C=CCc1ccc(O)c(OC)c1 [eugenol]
II: Cc1ccc(C(C)C)c(O)c1 [thymol]
Identify the entry with the larger Kd. Options: I and II Give the label of your selection.
II
